# Study system: T1, recombinant purified human IL-12 p70 (human, UniProt P29459 23-219)
# T1 sequence 1: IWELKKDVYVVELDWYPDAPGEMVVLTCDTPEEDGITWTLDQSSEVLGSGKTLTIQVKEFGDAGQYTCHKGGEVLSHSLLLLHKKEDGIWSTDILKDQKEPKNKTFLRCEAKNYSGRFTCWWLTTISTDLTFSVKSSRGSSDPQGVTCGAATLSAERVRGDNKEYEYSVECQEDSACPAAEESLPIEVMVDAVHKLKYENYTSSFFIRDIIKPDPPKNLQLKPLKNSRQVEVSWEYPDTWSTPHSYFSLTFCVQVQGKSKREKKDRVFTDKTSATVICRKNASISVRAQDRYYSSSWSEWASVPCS
# T1 sequence 2: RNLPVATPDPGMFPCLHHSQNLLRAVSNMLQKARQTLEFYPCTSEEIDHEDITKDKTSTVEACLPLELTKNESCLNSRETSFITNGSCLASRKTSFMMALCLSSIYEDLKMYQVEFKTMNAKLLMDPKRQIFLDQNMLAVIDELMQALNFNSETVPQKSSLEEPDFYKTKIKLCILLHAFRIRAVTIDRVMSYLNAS
# Measurement notes: cell-based or functional assay

[
  {
    "Binder": "additional humanized anti-IL-12 antibody 1A6.10 (antibody, human IgG1, V domains shown, Only variable domains tied to it) VH: EVTLRESGPGLVKPTQTLTLTCTLYGFSLSTSGMGVSWIRQPPGKGLEWLAHIWWDGDNYYNPSLKSQLTISKDTSKNQVVLKLTSVDPVDTATYYCARRTRVNYAMDYWGQGTLVTVSS VL: DIQMTQSPSSLSASVGDRVTITCKASQSVSNDVAWYQQKPGKAPKLLIYYASNRYTGVPDRFSGSGYGTDFTFTISSLQPEDIATYYCQQDYNSPWTFGGGTKVEIKR",
    "Reading unit": "nM",
    "Av. IC50 (nM) huIL-12, PHA blast assay": 0.15
  },
  {
    "Binder": "additional humanized anti-IL-12 antibody 1A6.12 (antibody, human IgG1, V domains shown, Only variable domains tied to it) VH: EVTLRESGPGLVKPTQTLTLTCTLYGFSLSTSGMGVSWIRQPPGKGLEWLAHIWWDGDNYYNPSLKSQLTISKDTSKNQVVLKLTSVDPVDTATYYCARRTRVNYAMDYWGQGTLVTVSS VL: DIQMTQSPSSLSASVGDRVTITCKASQSVSNDVAWFQQKPGKAPKLLIYYASNRYTGVPDRFSGSGYGTDFTFTISSLQPEDIATYYCQQDYNSPWTFGGGTKVEIKR",
    "Reading unit": "nM",
    "Av. IC50 (nM) huIL-12, PHA blast assay": 0.088
  },
  {
    "Binder": "additional humanized anti-IL-12 antibody 8E1.5 (antibody, IgG1, V domains shown, IgG1/kappa) VH: EVQLVESGGGLVQPGGSLRLSCAASGFTFSDYGMVWVRQAPGKGLEWVASISSGSSNIYYADTVKGRFTISRDNAKNTLYLQMNSLRAEDTAVYYCARNPYWGQGTLVTVSS VL: DIQMTQSPSSLSASVGDRVTITCKASQNVGTNVAWYQQKPGKAPKGLIYSASHRYSGVPDRFSGSGSGTDFTLTISSLQPEDFATYYCQQYNSYPLTFGGGTKVEIKR",
    "Reading unit": "nM",
    "Av. IC50 (nM) huIL-12, PHA blast assay": 8
  },
  {
    "Binder": "additional humanized anti-IL-12 antibody 8E1.4 (antibody, IgG1, V domains shown, IgG1/kappa) VH: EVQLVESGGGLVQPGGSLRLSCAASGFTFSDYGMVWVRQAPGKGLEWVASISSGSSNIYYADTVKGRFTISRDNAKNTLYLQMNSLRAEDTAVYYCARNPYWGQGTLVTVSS VL: DIQMTQSPSSLSASVGDRVTITCKASQNVGTNVAWYQQKPGKAPKGLIYSASHRYSGVPSRFSGSGSGTDFTLTISSLQPEDFATYYCQQYNSYPLTFGGGTKVEIKR",
    "Reading unit": "nM",
    "Av. IC50 (nM) huIL-12, PHA blast assay": 12
  }
]
